- system under test: Sentrin-specific protease 8 (Homo sapiens, UniProt Q96LD8);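 further: luminescence read-out of SENP8 inhibition, dose-response confirmation following an ultra-high-throughput screen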
- Sequence (Q96LD8 whole entry): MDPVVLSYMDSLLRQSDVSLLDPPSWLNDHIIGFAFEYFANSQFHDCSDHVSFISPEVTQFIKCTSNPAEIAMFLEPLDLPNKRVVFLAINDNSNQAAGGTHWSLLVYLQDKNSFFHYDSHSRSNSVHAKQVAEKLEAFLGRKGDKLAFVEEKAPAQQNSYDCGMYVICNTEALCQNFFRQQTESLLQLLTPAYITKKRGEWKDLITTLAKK
- Format: functional
Activity calls are given as the source filed them.
Just give me one of these, please: active, inactive

Reference set, count: 6
INSERT INTO measurements (smiles_record, system_under_test, label_class) VALUES
  ('COCCn1c(C)cc(C(=O)CSc2nc3ccccc3s2)c1C', 'Sentrin-specific protease 8 (Homo sapiens, UniProt Q96LD8)', 'active'),
  ('COc1ccc(C(=O)Nc2nc3c(s2)Cc2cc(OC)ccc2-3)cc1', 'Sentrin-specific protease 8 (Homo sapiens, UniProt Q96LD8)', 'active'),
  ('O=C(Nc1ccc(Cl)cn1)c1ccc(Oc2ccccc2)cc1', 'Sentrin-specific protease 8 (Homo sapiens, UniProt Q96LD8)', 'active'),
  ('O=C(O/N=C1\CCCc2ccccc21)c1ccc(F)cc1', 'Sentrin-specific protease 8 (Homo sapiens, UniProt Q96LD8)', 'active'),
  ('COC(=O)c1sccc1NC(=O)Cc1ccc(Br)cc1', 'Sentrin-specific protease 8 (Homo sapiens, UniProt Q96LD8)', 'active'),
  ('CC(/C=C1\SC(=S)N(NS(=O)(=O)c2ccccc2)C1=O)=C\c1ccccc1', 'Sentrin-specific protease 8 (Homo sapiens, UniProt Q96LD8)', 'active');

Task: What is the recorded call for this compound in the test? Cn1c(-c2ccccc2)cc2onc(-c3ccccc3)c2c1=O
Output: active

Task: Subsequent entry: Cc1cc(C)nc(NC(=O)/C=C/c2ccc(Cl)cc2Cl)c1
Output: active

Task: Subsequent entry: COc1ccc(/N=C(\C)C2=C(O)c3ccccc3C2=O)cc1
Output: active

Task: Subsequent entry: COc1ccc(C(=O)O/N=C(\N)c2ccc(OC)c(OC)c2)cc1
Output: active

Task: Subsequent entry: CC(=O)c1c(C)oc2ccc(OCc3ccccc3)cc12
Output: active

Task: Subsequent entry: O=c1oc(-c2ccco2)nc2sc3c(c12)CCCC3
Output: inactive

Every entry's value here was drawn from ChEMBL document CHEMBL1201862.
